All figures here come from PubChem BioAssay AID449762.

# Tested on: M. tuberculosis H37Rv growth inhibition, 7H9 media
# Method notes: M. tuberculosis growth inhibition, HTS (AID 449762);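 note: bacterial growth assessed after seven days of incubation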
# Test conditions: measured here: IC90 growth inhibition
Results filed as inconclusive are left out.
log10 IC90 overview
Measured parameter: log10 IC90 (log10 of the value in µM)

{"Molecule": "O=C(/C=C/c1cn(-c2ccccc2)nc1-c1cccnc1)c1ccco1", "log10 IC90": 1.67}
{"Molecule": "O=C(c1cccc([N+](=O)[O-])c1)N1CCN(c2ccc(N3CCOCC3)nn2)CC1", "log10 IC90": 1.42}
{"Molecule": "COC(=O)c1c(NC(=O)CC2SC(N)=NC2=O)sc2c1CCC(C(C)(C)C)C2 (stereo not given)", "log10 IC90": 1.71}
{"Molecule": "CCc1cc(C(=O)NNC(=O)CCl)sc1C", "log10 IC90": 0.66}
{"Molecule": "CSc1ccc(C(=O)C2CCCN(C(=O)c3ccc4c(c3)no[n+]4[O-])C2)cc1 (stereo not given)", "log10 IC90": 0.20}
{"Molecule": "O=C(OCc1ccccc1)/C(=C(\\O)c1ccccc1Br)c1ccc(-c2ccccc2)cn1", "log10 IC90": 1.66}
{"Molecule": "CCOC(=O)c1cnc(-n2nc(C)cc2C)nc1NNc1cc(C)nc(-c2ccccc2)n1", "log10 IC90": 1.96}

* * *

# Tested on: M. tuberculosis H37Rv growth inhibition, 7H9 media
# Method notes: M. tuberculosis growth inhibition, HTS (AID 449762);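 note: bacterial growth assessed after seven days of incubation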
# Test conditions: measured here: IC90 growth inhibition
Records with an inconclusive call do not appear.
Measured IC90, listed per entry.
Measured parameter: IC90 (µM)

{"Molecule": "COC(=O)CCn1c(C)cc(C(=O)COc2ccccc2C(N)=O)c1C", "Value modifier": "=", "Result": 15.8}
{"Molecule": "COc1ccccc1N1CCN(c2ccc(-c3ccccc3)nn2)CC1", "Value modifier": ">", "Result": 100}
{"Molecule": "Cc1ccc(C(=O)c2cc(C)sc2NC(=O)CN2CCN(C(=O)c3ccco3)CC2)cc1", "Value modifier": "=", "Result": 12}
{"Molecule": "O=C(OCc1nc2ccccc2s1)c1ccc(Br)o1", "Value modifier": ">", "Result": 100}
{"Molecule": "O=C(/C=C/c1ccc(O)c([N+](=O)[O-])c1)c1ccc2ccccc2c1", "Value modifier": "=", "Result": 25.6}
{"Molecule": "Cc1ccc(C(=O)ONc2ccc(N=O)cc2)cc1", "Value modifier": "=", "Result": 43.1}
{"Molecule": "O=C(CCl)N1CCCC1c1ccc2c(c1)OCCO2 (stereo not given)", "Value modifier": "=", "Result": 9.07}
{"Molecule": "Cc1cccc(C(=O)NNC(=S)NC(=O)c2ccccc2)c1", "Value modifier": "=", "Result": 2.82}
{"Molecule": "Cc1ccccc1NC(=O)Cc1nc(COC(=O)/C=C/c2ccccc2)cs1", "Value modifier": "=", "Result": 63}
{"Molecule": "CCOC(=O)c1ccc(Nc2cc3ccccc3c(=O)[nH]2)cc1", "Value modifier": ">", "Result": 100}
{"Molecule": "CN1C(=O)/C(=C/c2ccccc2Cl)Sc2ccc(C(=O)NCc3cccnc3)cc21", "Value modifier": "=", "Result": 68.9}
{"Molecule": "O=[N+]([O-])c1cc(-c2nc(-c3ccncc3)no2)cc([N+](=O)[O-])c1", "Value modifier": "=", "Result": 11.4}
{"Molecule": "Cc1cc(C)nc(Sc2ncnc(N)c2[N+](=O)[O-])n1", "Value modifier": "=", "Result": 20.7}
{"Molecule": "CCC(=O)NC(=S)Nc1ccc(NC(=O)COc2ccc(Cl)cc2Cl)cc1", "Value modifier": ">", "Result": 100}
{"Molecule": "Cc1c(Cl)ccc2sc(N3CCN(C(=O)C4=COCCO4)CC3)nc12", "Value modifier": "=", "Result": 59}
{"Molecule": "C=CCc1c(C)nc(C)nc1N/N=C/c1ccccc1O", "Value modifier": "=", "Result": 4.08}
{"Molecule": "O=C(/C=C/c1ccc([N+](=O)[O-])cc1)NC1CC2CCC1C2 (stereo not given)", "Value modifier": "=", "Result": 84.1}
{"Molecule": "CCOC(=O)c1sc2ncnc(NCC(c3cccs3)N(C)C)c2c1C (stereo not given)", "Value modifier": "=", "Result": 71.6}
{"Molecule": "CCCCN(C)S(=O)(=O)c1ccc(C(=O)Nc2nnc(-c3ccco3)o2)cc1", "Value modifier": "=", "Result": 21.2}
{"Molecule": "COc1ccc(C(=O)Cn2nc(CNc3ccc(Br)cc3)[n+]3c2CCCCC3)cc1", "Value modifier": "=", "Result": 13.7}
{"Molecule": "CSc1nsc(/C=C/Nc2ccc(O)cc2C)c1C#N", "Value modifier": "=", "Result": 43}
{"Molecule": "S=C(NCCc1ccccc1)NN=C1CCCCCC1", "Value modifier": "=", "Result": 26.6}
{"Molecule": "CN(C(=O)COC(=O)c1ccc([N+](=O)[O-])cc1Cl)C1CCCCC1", "Value modifier": "=", "Result": 65.6}
{"Molecule": "Cc1ccc(OCCN2CCN(c3ncnc4sc(C)c(C)c34)CC2)cc1", "Value modifier": ">", "Result": 100}
{"Molecule": "CN1CCN(CC/C=C2/c3ccccc3Sc3ccc(S(=O)(=O)N(C)C)cc32)CC1", "Value modifier": ">", "Result": 100}
{"Molecule": "CCCCOC(=O)NS(=O)(=O)c1sc(CC(C)C)cc1-c1ccc(Cn2c(CC)nc3c(C)cc(C)nc32)cc1", "Value modifier": "=", "Result": 35.4}
{"Molecule": "COc1cc(/C=C/C(=O)c2c(O)n(CCc3ccccc3)c(=O)[nH]c2=O)ccc1O", "Value modifier": "=", "Result": 11.5}
{"Molecule": "Cc1ccc(-c2cccc(NC(=O)C3C4C=CC(C4)C3C(=O)O)c2)o1 (stereo not given)", "Value modifier": ">", "Result": 100}
{"Molecule": "Cc1ccc(-c2noc(=O)n2CC(=O)c2ccc(Cl)cc2)cc1", "Value modifier": ">", "Result": 100}
{"Molecule": "O=c1c2ccccc2nc(/C=C/c2ccccc2)n1-c1ccc(O)cc1", "Value modifier": ">", "Result": 100}
{"Molecule": "Clc1cc(Cl)cc(Nc2ncn[nH]2)c1", "Value modifier": ">", "Result": 100}
{"Molecule": "COc1ccccc1N1CCN(/N=C/C(Cl)=C/c2ccccc2)CC1", "Value modifier": ">", "Result": 100}
{"Molecule": "Cc1ccc2nc(/C(C#N)=C/c3cn[nH]c3-c3ccc(F)cc3)[nH]c2c1", "Value modifier": ">", "Result": 100}
{"Molecule": "COc1ccc(-c2nnc(SCC(=O)N3CCc4ccccc4C3)o2)cc1", "Value modifier": "=", "Result": 29.2}
{"Molecule": "COc1ccc(C(=O)/C=C/c2cc(OC)c(O)c(OC)c2)c(F)c1", "Value modifier": "=", "Result": 67}
{"Molecule": "O=C(NCc1nnnn1-c1ccc(F)cc1)c1ccc([N+](=O)[O-])o1", "Value modifier": "=", "Result": 74.1}
{"Molecule": "Cc1ccc(C(=O)Sc2cccccc2=O)cc1", "Value modifier": "=", "Result": 2.48}
{"Molecule": "O=C(NC1CCN(C(=O)N2c3ccccc3Sc3ccccc32)CC1)c1ccccc1F", "Value modifier": ">", "Result": 100}
{"Molecule": "C=CCN(CC(=O)c1sc(C(=O)OCC)nc1C)c1cccc(Br)c1", "Value modifier": "=", "Result": 28.8}
{"Molecule": "CCCCCCCCSc1nnc(CSc2nc3nc(C)cc(C)n3n2)o1", "Value modifier": "=", "Result": 8.29}
{"Molecule": "CC(=O)n1cc(/C=C2/N=C(c3ccccc3)OC2=O)c2ccccc21", "Value modifier": "=", "Result": 75.5}
{"Molecule": "CC(/C=N/n1c(C2CCCCC2)n[nH]c1=S)=C\\c1ccccc1", "Value modifier": "=", "Result": 54.3}
{"Molecule": "Cc1nc2sccn2c(=O)c1CCN1CCC(=C(c2ccccc2)c2ccc(F)cc2)CC1", "Value modifier": "=", "Result": 49.9}
{"Molecule": "O=C(CN1CCN(c2ccccc2O)CC1)Nc1ccccc1C(=O)NCCc1ccccc1", "Value modifier": "=", "Result": 57.9}
{"Molecule": "CCN(CC)c1ccc(N)cc1", "Value modifier": "=", "Result": 9.95}

* * *

# IC90 per entry
# System: M. tuberculosis H37Rv growth inhibition, 7H9 media
# Method notes: M. tuberculosis growth inhibition, HTS (AID 449762);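 note: bacterial growth assessed after seven days of incubation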
# Test conditions: measured here: IC90 growth inhibition
Results filed as inconclusive are left out.
Measured parameter: IC90 (µM)

{"Molecule": "CCOC(=O)c1sc2nc3n(c(=O)c2c1C)CCC(C)CC3 (stereo not given)", "Reading unit": "µM", "Value modifier": "=", "Result": 39}
{"Molecule": "CN(CC(=O)Nc1ccc(OC(F)(F)F)cc1)C(=O)/C=C/c1cc2c(cc1[N+](=O)[O-])OCO2", "Reading unit": "µM", "Value modifier": "=", "Result": 37.9}
{"Molecule": "C/C(=C\\C(=O)c1ccccc1)Nc1ccc(Cl)c(Br)c1", "Reading unit": "µM", "Value modifier": ">", "Result": 100}
{"Molecule": "Cc1cccc(CSc2nc3c(c(-c4cccs4)c2C#N)CN(C)CC3)c1", "Reading unit": "µM", "Value modifier": ">", "Result": 100}
{"Molecule": "C/C(=N\\NC(=O)CC(C)C)c1c(C(F)(F)F)[nH]n(-c2nc3ccccc3s2)c1=O", "Reading unit": "µM", "Value modifier": ">", "Result": 100}
